System Tested: HLA-B*51:01
Protocol Details: IEDB peptide-MHC binding, purified MHC/competitive/fluorescence; filed as Kd, often an IC50 or EC50 that approximates it; bounds were set here for any values at or beyond the usual limits of such assays
Condition Summary: source organism: Orthohantavirus delgaditoense
pKd: −log10 of the molar value.
Metric: pKd

Incoming: Tell me its pKd given DWMERIEDF as the entry.
Outgoing: ≤ 4.70

====

System Tested: HLA-A*02:11
Protocol Details: IEDB peptide-MHC binding, purified MHC/direct/fluorescence; filed as Kd, often an IC50 or EC50 that approximates it; bounds were set here for any values at or beyond the usual limits of such assays
Condition Summary: source organism: Francisella tularensis subsp. tularensis FSC033
Metric: Kd

Incoming: Tell me its Kd given YMYQYIQEL as the entry.
Outgoing: ≤ 1 nM

====

System Tested: HLA-A*11:01
Protocol Details: IEDB peptide-MHC binding, purified MHC/direct/fluorescence; filed as Kd, often an IC50 or EC50 that approximates it; bounds were set here for any values at or beyond the usual limits of such assays
Condition Summary: source organism: Yersinia pestis
Metric: pKd
Give bare numbers, as −log10 of the molar value.

Incoming: Tell me its pKd given SDDQLRLLK as the entry.
Outgoing: 6.39

====

Hi there, I'd appreciate the recorded pKd for every entry that follows.
System Tested: HLA-B*46:01
Protocol Details: IEDB peptide-MHC binding, purified MHC/direct/fluorescence; filed as Kd, often an IC50 or EC50 that approximates it; bounds were set here for any values at or beyond the usual limits of such assays
Condition Summary: source organism: Giardia lamblia ATCC 50803
pKd: −log10 of the molar value.

| Sequence Chain | pKd |
| --- | --- |
| DSPATLSAY | ≤ 4.70 |

Field: next sequence
Incoming: Tell me its pKd given MHYGYNRAN as the entry.
Outgoing: ≤ 4.70

====

Hi there, I'd appreciate the recorded pIC50 for every entry that follows.
System Tested: HLA-B*08:01
Protocol Details: IEDB peptide-MHC binding, purified MHC/competitive/fluorescence; bounds were set here for any values at or beyond the usual limits of such assays
Condition Summary: source organism: Zaire ebolavirus
Numbers only, as −log10 of the molar value.

| Sequence Chain | System Tested | pIC50 |
| --- | --- | --- |
| RTAKVKNEV | HLA-B*08:01 | 4.25 |

Incoming: Tell me its pIC50 given PVMNHKNKF as the entry.
Outgoing: 4.96

====

System Tested: HLA-A*30:01
Protocol Details: IEDB peptide-MHC binding, purified MHC/competitive/radioactivity; filed as Kd, often an IC50 or EC50 that approximates it; bounds were set here for any values at or beyond the usual limits of such assays
Condition Summary: source organism: Dengue virus 4 Philippines/H241/1956
Metric: pKd
Give bare numbers, as −log10 of the molar value.

Incoming: Tell me its pKd given ILKRWGQLK as the entry.
Outgoing: 6.50

====

System Tested: HLA-A*02:12
Protocol Details: IEDB peptide-MHC binding, purified MHC/direct/fluorescence; filed as Kd, often an IC50 or EC50 that approximates it; bounds were set here for any values at or beyond the usual limits of such assays
Condition Summary: source organism: Zaire ebolavirus
Metric: Kd

Solved entries:
| Sequence Chain | System Tested | Kd |
| --- | --- | --- |
| KVYWAGIEF | HLA-A*02:12 | ≥ 20 µM |
| SQVRVPTVF | HLA-A*02:12 | ≥ 20 µM |

Field: next sequence
Incoming: // fetch Kd for IFLKPDETF ; system: HLA-A*02:12
Outgoing: ≥ 20 µM
